test system: BRAF; details: concentration: 1 μM,replicates: in singlicate; n = 1
assay.metric: %Inh (%)
Respond numerically; units are % and should not be typed.

Exam item: Specify the recorded %Inh for CCn1c(-c2nonc2N)nc2c(C#CC(C)(C)O)nc(OCCN)cc21.Cl.Cl , system: BRAF.
Marked response: 38

Exam item: // fetch %Inh; item: Cc1occc1-c1nc(N)c(OC[C@@H](N)Cc2c[nH]c3ccccc23)cc1-c1cc2c(C)n[nH]c2cn1 ; system: BRAF
Marked response: 30

Exam item: Write %Inh of Cc1ccc2c(-c3ccncc3)c(-c3ccc(F)cc3)nn2c1.Cl ; system used: BRAF
Marked response: 59

Exam item: Print BRAF %Inh for Cc1cc(C(=O)Nc2ccc(Oc3ccc4nc(NC(=O)C5CC5)cn4n3)cc2)nn1-c1ccccc1 .
Marked response: 10

Exam item: // output %Inh; input Cc1n[nH]c2ccc(-c3cc(OC[C@@H](N)Cc4ccccc4)cnc3-c3ccoc3)cc12.O=C(O)C(F)(F)F.O=C(O)C(F)(F)F ; system BRAF
Marked response: 0

Exam item: Write down the reported %Inh (system: BRAF) of Cc1cc2cn[nH]c2cc1-c1cccc2c(N)c(C(N)=O)nnc12
Marked response: 33

Exam item: Determine reported %Inh for O=C(NCCCN1CCOC1=O)c1cnc(NCc2cc(Cl)ccc2Cl)nc1NC1CCCC1 ; test system: BRAF.
Marked response: 0

Exam item: Provide the reported %Inh (system: BRAF) for Cl.Cl.NC[C@H](Cc1ccc(C(F)(F)F)cc1)NC(=O)c1cc(Br)c(-c2ccnc3[nH]ccc23)s1;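 also: KINOMEscan kinase panel screen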
Marked response: 0
